System: HL-1
METHOD DESCRIPTION: relative cell viability (CellTiter-Glo) vs DMSO control (% of DMSO control); higher = more viable cells
CONDITIONS: oxygen condition: hypoxia 48 h (1% O2) + reoxygenation 24 h; 200 nM
Structures can show the parent of a compound that is named as a salt.
Define the label as 1.0 when relative cell viability is strictly less than 100 and as 0.0 in all remaining cases.

Prompt: A record lists NC(=O)c1ncn([C@@H]2O[C@H](CO)[C@@H](O)[C@H]2O)c1O . Is its relative cell viability below 100?
Completion: 0.0

Prompt: Hi there! Is relative cell viability for CC[C@@H]1/C=C(\C)C[C@H](C)C[C@H](OC)[C@H]2O[C@@](O)(C(=O)C(=O)N3CCCC[C@H]3C(=O)O[C@H](/C(C)=C/[C@@H]3CC[C@H](Cl)[C@H](OC)C3)[C@H](C)[C@@H](O)CC1=O)[C@H](C)C[C@@H]2OC below 100, do you know?
Completion: 1.0

Prompt: Does this compound meet the criterion relative cell viability < 100? COc1ccc(Cl)cc1C(=O)NCCc1ccc(S(=O)(=O)NC(=O)NC2CCCCC2)cc1 [Glyburide]
Completion: 0.0

Prompt: Report whether reported relative cell viability is lower than 100 (strictly) for O=C(O)c1cc(=O)c2ccccc2o1
Completion: 0.0

Prompt: is_below(relative cell viability, 100) for N=C(N)NC(=O)c1nc(Cl)c(N)nc1N [Amiloride hydrochloride dihydrate] ?
Completion: 0.0

Prompt: relative cell viability under 100? Item: OC(CNCC(O)C1CCc2cc(F)ccc2O1)C1CCc2cc(F)ccc2O1 (centres undefined)
Completion: 0.0

Prompt: I'd appreciate it if you could check whether CC1CCc2c(N3CCC(O)CC3)c(F)cc3c(=O)c(C(=O)O)cn1c23 (centres undefined) has relative cell viability smaller than 100.
Completion: 0.0
